Entry source: paper PMC6268294

tested on: MCF-7 (breast), A549 (lung), PC3 (prostate), HT-29 (colorectal) and WRL68 (liver); experiment: MTT assay, summary over all five cell lines; format: cell-based, human
metric: cytotoxic effect in words

Some molecules with recorded cytotoxic effect in words:
O=C(/C=C/c1ccccc1Cl)c1ccccc1; high cytotoxicity
COc1ccc(C(=O)/C=C/c2ccc(N(C)C)cc2)cc1; low cytotoxic effects
Cc1ccc(C(=O)/C=C/c2ccccc2O)cc1 [Compound 23, 3-(2-Hydroxyphenyl)-1-p-tolylpropenone]; high cytotoxicity
COc1ccc(C(=O)/C=C/c2ccccc2Cl)cc1; low cytotoxic effects
COc1ccc(/C=C/C(=O)c2ccc(O)cc2)cc1; low cytotoxic effects

Please supply cytotoxic effect in words for each of the following items, keeping them in order.
1. O=C(/C=C/c1ccccc1O)c1ccc(O)cc1
2. Cc1cccc(/C=C/C(=O)c2ccc(O)cc2)c1 [Compound 10, 1-(4-Hydroxyphenyl)-3-m-tolylpropenone]
3. COc1ccc(C(=O)/C=C/c2ccccc2O)cc1
4. O=C(/C=C/c1cccc(Cl)c1)c1ccccc1
5. Cc1ccc(C(=O)/C=C/c2ccccc2Cl)cc1

low cytotoxic effects
high cytotoxicity
high cytotoxicity
high cytotoxicity
low cytotoxic effects
